System: gastric acid secretion
Test: Inhibiting effect of gastric acid secretion, pylorus-ligated rat (Shay)
Format: in vivo
Settings: pylorus ligation, injected into duodenum, 5 hours, volume (ml) to 50% of controls, read-out: Inhibiting effect of gastric acid secretion ED50, Volume of the gastric juice
Values of ED50 strictly less than 0.6 mg/kg map to 1, and values of at least 0.6 mg/kg map to -1.

Query: Strictly below 0.6 mg/kg: is that where ED50 of O=C(O)COc1cccc2c1O[C@H]1C[C@@H](O)[C@H](/C=C/[C@@H](O)c3cccc(C(F)(F)F)c3)[C@@H]21 (relative stereo) [Compound 278] sits?
Reply: -1

Query: Strictly below 0.6 mg/kg: is that where ED50 of O=C(O)COc1cccc2c1O[C@H]1C[C@@H](O)[C@H](/C=C/[C@@H](O)C3CCCC3)[C@@H]21 (relative stereo) [Compound 230] sits?
Reply: 1

Query: Strictly below 0.6 mg/kg: is that where ED50 of CCCCCC[C@H](O)/C=C/[C@@H]1[C@H]2c3cccc(OCC(=O)O)c3O[C@H]2C[C@H]1O (relative stereo) [Compound 160] sits?
Reply: 1

Query: Strictly below 0.6 mg/kg: is that where ED50 of O=C(O)COc1cccc2c1O[C@H]1C[C@@H](O)[C@H](/C=C/[C@@H](O)c3ccccc3)[C@@H]21 (relative stereo) [Compound 256] sits?
Reply: 1

Query: Strictly below 0.6 mg/kg: is that where ED50 of O=C(O)COc1cccc2c1O[C@H]1C[C@@H](O)[C@H](/C=C/[C@@H](O)Cc3ccccc3)[C@@H]21 (relative stereo) [Compound 260] sits?
Reply: -1

Query: Strictly below 0.6 mg/kg: is that where ED50 of CC(C)(Oc1ccccc1)[C@H](O)/C=C/[C@@H]1[C@H]2c3cccc(C#CC(=O)O)c3O[C@H]2C[C@H]1O (relative stereo) [Compound 371] sits?
Reply: -1

Query: Strictly below 0.6 mg/kg: is that where ED50 of O=C(O)COc1cccc2c1O[C@H]1C[C@@H](O)[C@H](/C=C/[C@@H](O)CC3CCCCC3)[C@@H]21 (relative stereo) [Compound 241] sits?
Reply: -1

Query: Strictly below 0.6 mg/kg: is that where ED50 of O=C(O)COc1cccc2c1O[C@H]1C[C@@H](O)[C@H](/C=C/[C@@H](O)CCc3ccccc3)[C@@H]21 (relative stereo) [Compound 263] sits?
Reply: 1

Query: Strictly below 0.6 mg/kg: is that where ED50 of O=C(O)COc1cccc2c1O[C@H]1C[C@@H](O)[C@H](/C=C/[C@@H](O)c3ccccc3Cl)[C@@H]21 (relative stereo) [Compound 281] sits?
Reply: 1

Query: Strictly below 0.6 mg/kg: is that where ED50 of O=C(O)COc1cccc2c1O[C@H]1C[C@@H](O)[C@H](/C=C/[C@@H](O)c3ccc(Cl)cc3)[C@@H]21 (relative stereo) [Compound 289] sits?
Reply: 1

Query: Strictly below 0.6 mg/kg: is that where ED50 of CCCCC(C)(C)[C@H](O)/C=C/[C@@H]1[C@H]2c3cccc(OCC(=O)O)c3O[C@H]2C[C@H]1O (relative stereo) [Compound 180] sits?
Reply: 1

Query: Strictly below 0.6 mg/kg: is that where ED50 of CCCOCC(C)(C)[C@H](O)/C=C/[C@@H]1[C@H]2c3cccc(OCC(=O)O)c3O[C@H]2C[C@H]1O (relative stereo) [Compound 309] sits?
Reply: -1

###

Would you kindly list ED50 for each of these compounds?
System: gastric acid secretion
Test: Inhibiting effect of gastric acid secretion, pylorus-ligated rat (Shay)
Assay type: in vivo
Details: pylorus ligation, injected into duodenum, 5 hours, volume (ml) to 50% of controls, read-out: Inhibiting effect of gastric acid secretion ED50, Volume of the gastric juice
Numbers only here, please. The scale is mg/kg.

Query: Returns the measured ED50 for the input compound. Input: O=C(O)COc1cccc2c1O[C@H]1C[C@@H](O)[C@H](/C=C/[C@@H](O)CCC3CCCCC3)[C@@H]21 (relative stereo) [Compound 244]
Reply: 3.5

Query: Returns the measured ED50 for the input compound. Input: O=C(O)COc1cccc2c1O[C@H]1C[C@@H](O)[C@H](/C=C/[C@@H](O)COc3ccccc3)[C@@H]21 (relative stereo) [Compound 313]
Reply: 0.42

Query: Returns the measured ED50 for the input compound. Input: CCCCC(C)[C@H](O)/C=C/[C@@H]1[C@H]2c3cccc(OCC(=O)O)c3O[C@H]2C[C@H]1O (relative stereo) [Compound 208]
Reply: 0.14

Query: Returns the measured ED50 for the input compound. Input: CC#CCC(C)[C@H](O)/C=C/[C@@H]1[C@H]2c3cccc(OCC(=O)O)c3O[C@H]2C[C@H]1O (relative stereo) [Compound 321]
Reply: 0.12

###

Tested on: gastric acid secretion
Assay: Inhibiting effect of gastric acid secretion, pylorus-ligated rat (Shay)
Assay type: in vivo
Settings: pylorus ligation, injected into duodenum, 5 hours, volume (ml) to 50% of controls, read-out: Inhibiting effect of gastric acid secretion ED50, Volume of the gastric juice
Would you kindly list log10(ED50) for each of these molecules?
Annotation: log10 of ED50, mg/kg basis.

Query: Returns the measured log10(ED50) for the input molecule. Input: O=C(O)COc1cccc2c1O[C@H]1C[C@@H](O)[C@H](/C=C/[C@@H](O)c3cccc(F)c3)[C@@H]21 (relative stereo)
Reply: -0.59

Query: Returns the measured log10(ED50) for the input molecule. Input: O=C(O)COc1cccc2c1O[C@H]1C[C@@H](O)[C@H](/C=C/[C@@H](O)c3cccc(Cl)c3)[C@@H]21 (relative stereo)
Reply: -0.06

Query: Returns the measured log10(ED50) for the input molecule. Input: CCC[C@H](C)C[C@H](O)/C=C/[C@@H]1[C@H]2c3cccc(OCC(=O)O)c3O[C@H]2C[C@H]1O
Reply: -1.06

Query: Returns the measured log10(ED50) for the input molecule. Input: CCCCC[C@H](O)/C=C/[C@@H]1[C@H]2c3cccc(OCC(=O)O)c3O[C@H]2C[C@H]1O (relative stereo)
Reply: -0.48

Query: Returns the measured log10(ED50) for the input molecule. Input: O=C(O)COc1cccc2c1O[C@H]1C[C@@H](O)[C@H](/C=C/[C@@H](O)C3CCCCC3)[C@@H]21 (relative stereo)
Reply: -1.07

Query: Returns the measured log10(ED50) for the input molecule. Input: CC(C)[C@H](O)/C=C/[C@@H]1[C@H]2c3cccc(OCC(=O)O)c3O[C@H]2C[C@H]1O (relative stereo)
Reply: 0.13

###

System: gastric acid secretion
Experiment: Inhibiting effect of gastric acid secretion, perfused stomach, pentagastrin-stimulated (Ghosh & Schild)
Format: in vivo, male SD rat
Conditions: urethane-anesthetized SD rat, pentagastrin 0.05 μg/kg/min, injected through femoral vein; ratio of area index to that of PGE2
Values of Inhibiting effect of gastric acid secretion, Relative effect (PGE2 = 1) strictly less than 20 map to T, and values of at least 20 map to F.

Query: Strictly below 20: is that where Inhibiting effect of gastric acid secretion, Relative effect (PGE2 = 1) of CCCCCCCC(C)(C)[C@H](O)/C=C/[C@@H]1[C@H]2c3cccc(OCC(=O)O)c3O[C@H]2C[C@H]1O (relative stereo) [Compound 192] sits?
Reply: T

Query: Strictly below 20: is that where Inhibiting effect of gastric acid secretion, Relative effect (PGE2 = 1) of CC(C)(C1CCCCC1)[C@H](O)/C=C/[C@@H]1[C@H]2c3cccc(OCC(=O)O)c3O[C@H]2C[C@H]1O (relative stereo) [Compound 248] sits?
Reply: T

Query: Strictly below 20: is that where Inhibiting effect of gastric acid secretion, Relative effect (PGE2 = 1) of CCCCC(C)[C@H](O)/C=C/[C@@H]1[C@H]2c3cccc(OCC(=O)O)c3O[C@H]2C[C@H]1O (relative stereo) [Compound 208] sits?
Reply: F

Query: Strictly below 20: is that where Inhibiting effect of gastric acid secretion, Relative effect (PGE2 = 1) of CCOCC(C)(C)[C@H](O)/C=C/[C@@H]1[C@H]2c3cccc(OCC(=O)O)c3O[C@H]2C[C@H]1O (relative stereo) [Compound 305] sits?
Reply: F

Query: Strictly below 20: is that where Inhibiting effect of gastric acid secretion, Relative effect (PGE2 = 1) of CCCCCCC(C)(C)[C@H](O)/C=C/[C@@H]1[C@H]2c3cccc(OCC(=O)O)c3O[C@H]2C[C@H]1O (relative stereo) [Compound 188] sits?
Reply: F

Query: Strictly below 20: is that where Inhibiting effect of gastric acid secretion, Relative effect (PGE2 = 1) of O=C(O)COc1cccc2c1O[C@H]1C[C@@H](O)[C@H](/C=C/[C@@H](O)CC3CCCCC3)[C@@H]21 (relative stereo) [Compound 241] sits?
Reply: T

Query: Strictly below 20: is that where Inhibiting effect of gastric acid secretion, Relative effect (PGE2 = 1) of CC(C)(C)[C@H](O)/C=C/[C@@H]1[C@H]2c3cccc(OCC(=O)O)c3O[C@H]2C[C@H]1O (relative stereo) [Compound 168] sits?
Reply: T

Query: Strictly below 20: is that where Inhibiting effect of gastric acid secretion, Relative effect (PGE2 = 1) of CCCOCC(C)(C)[C@H](O)/C=C/[C@@H]1[C@H]2c3cccc(OCC(=O)O)c3O[C@H]2C[C@H]1O (relative stereo) [Compound 309] sits?
Reply: F

Query: Strictly below 20: is that where Inhibiting effect of gastric acid secretion, Relative effect (PGE2 = 1) of O=C(O)COc1cccc2c1O[C@H]1C[C@@H](O)[C@H](/C=C/[C@@H](O)C3CCCC3)[C@@H]21 (relative stereo) [Compound 230] sits?
Reply: T

Query: Strictly below 20: is that where Inhibiting effect of gastric acid secretion, Relative effect (PGE2 = 1) of CCCC(C)(C)[C@H](O)/C=C/[C@@H]1[C@H]2c3cccc(OCC(=O)O)c3O[C@H]2C[C@H]1O (relative stereo) [Compound 176] sits?
Reply: F

Query: Strictly below 20: is that where Inhibiting effect of gastric acid secretion, Relative effect (PGE2 = 1) of CC(C)(Oc1ccccc1)[C@H](O)/C=C/[C@@H]1[C@H]2c3cccc(OCC(=O)O)c3O[C@H]2C[C@H]1O (relative stereo) [Compound 317] sits?
Reply: F

Query: Strictly below 20: is that where Inhibiting effect of gastric acid secretion, Relative effect (PGE2 = 1) of O=C(O)COc1cccc2c1O[C@H]1C[C@@H](O)[C@H](/C=C/[C@@H](O)c3ccc(Cl)cc3)[C@@H]21 (relative stereo) [Compound 289] sits?
Reply: T

Value source: patent US4775692A
